Numbers sourced from the supplement of paper PMC10065799.

ASSAYED_TARGET: SHP2-C SH2;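 further: peptide library displayed on the E. coli surface as eCPX fusions, selected cells deep-sequenced, score is each peptide's frequency after selection divided by its frequency in the input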
PROCEDURE_DETAILS: SH2 binding enrichment of the phosphorylated peptide, bacterial display (enrichment ratio); higher = better substrate or ligand; peptides without Tyr show the background
READOUT: SH2 binding enrichment

Consider the reported SH2 binding enrichment for these sequences:
INSERT INTO results (residue_codes, readout, observed_value) VALUES
  ('RAILDYIASKF [GSTA3_Y74_N73D_YF]', 'SH2 binding enrichment', 1.06),
  ('LKDEDYLKDTV [HAUS3_Y582_I586T]', 'SH2 binding enrichment', 0.501);

P: RQGQAYRGQRV [TSHR_Y706_A703G]
Q: KTDVHYRSLGG [DYSF_Y1858]
R: HSKGIYFVQLE [MGAT4B_Y262_Q257H_YF]
**Q:** Arrange items by their SH2 binding enrichment values in increasing order. Please list the labels in the order you were asked to rank them.
**A:** P, Q, R
(P: 0.334, Q: 0.649, R: 1.45)
